The measured values listed here are drawn from ChEMBL document CHEMBL5137058.

Target: Androgen receptor (Homo sapiens, UniProt P10275, T878A)
Assay: Binding affinity to bicalutamide-resistant Androgen receptor T877A mutant (unknown origin)
PROPERTY_MEASURED: pIC50
Note on pIC50: it is the negative log10 of concentration, concentration in mol/L.

Ask: Recorded pIC50 of Cc1c(C#N)c(-c2ccc(C#N)cc2)c(C)n1-c1cnc(Cl)c(CO)c1 , please.
Reply: 7.00

* * *

Test: Oral bioavailability in dog
Assay type: ADME, organism-based, Canis lupus familiaris
Settings: in vivo
PROPERTY_MEASURED: bioavailability (%)
All answers are understood in %, so give the number only.

Ask: What does the data say about its bioavailability? Entry: CC(=O)N1CCN(CCOc2ccc(C3CCN(C4=Nn5c(nnc5C(F)(F)F)CC4)CC3)cc2)CC1
Reply: 75

* * *

Task for the reader: assign each of the following compounds its reported pIC50.
Biological target: Androgen receptor (Homo sapiens)
Test: Displacement of [3H]methyltrienolone from Androgen receptor expressed in human MDA-MB-453 cells
Assay type: cell-based
Reminder that pIC50 means the negative base-10 logarithm of the concentration expressed in mol/L.

Ask: Look up pIC50 for this compound: CN1C(=O)C(F)=C[C@]2(C)[C@H]3CC[C@]4(C)[C@@H](O)/C(=C/c5cncnc5)C[C@H]4[C@@H]3CC[C@@H]12
Reply: 7.23

Ask: Reported pIC50, compound CN1C(=O)C(F)=C[C@]2(C)[C@H]3CC[C@]4(C)[C@@H](C(=O)NCc5nc6cccnc6[nH]5)CC[C@H]4[C@@H]3CC[C@@H]12 : ____
Reply: 8.18

* * *

Molecular target: UniProt P10275
PROPERTY_MEASURED: pIC50
Recall that pIC50 is obtained by taking minus log10 of the concentration measured in molar.

Ask: Requested read-out: pIC50. Entry: NS(=O)(=O)c1cccc2cc(SCCOc3ccccc3)[nH]c12
Reply: 6.28

* * *

Target: Androgen receptor (Homo sapiens, UniProt P10275)
Sequence (P10275 whole entry): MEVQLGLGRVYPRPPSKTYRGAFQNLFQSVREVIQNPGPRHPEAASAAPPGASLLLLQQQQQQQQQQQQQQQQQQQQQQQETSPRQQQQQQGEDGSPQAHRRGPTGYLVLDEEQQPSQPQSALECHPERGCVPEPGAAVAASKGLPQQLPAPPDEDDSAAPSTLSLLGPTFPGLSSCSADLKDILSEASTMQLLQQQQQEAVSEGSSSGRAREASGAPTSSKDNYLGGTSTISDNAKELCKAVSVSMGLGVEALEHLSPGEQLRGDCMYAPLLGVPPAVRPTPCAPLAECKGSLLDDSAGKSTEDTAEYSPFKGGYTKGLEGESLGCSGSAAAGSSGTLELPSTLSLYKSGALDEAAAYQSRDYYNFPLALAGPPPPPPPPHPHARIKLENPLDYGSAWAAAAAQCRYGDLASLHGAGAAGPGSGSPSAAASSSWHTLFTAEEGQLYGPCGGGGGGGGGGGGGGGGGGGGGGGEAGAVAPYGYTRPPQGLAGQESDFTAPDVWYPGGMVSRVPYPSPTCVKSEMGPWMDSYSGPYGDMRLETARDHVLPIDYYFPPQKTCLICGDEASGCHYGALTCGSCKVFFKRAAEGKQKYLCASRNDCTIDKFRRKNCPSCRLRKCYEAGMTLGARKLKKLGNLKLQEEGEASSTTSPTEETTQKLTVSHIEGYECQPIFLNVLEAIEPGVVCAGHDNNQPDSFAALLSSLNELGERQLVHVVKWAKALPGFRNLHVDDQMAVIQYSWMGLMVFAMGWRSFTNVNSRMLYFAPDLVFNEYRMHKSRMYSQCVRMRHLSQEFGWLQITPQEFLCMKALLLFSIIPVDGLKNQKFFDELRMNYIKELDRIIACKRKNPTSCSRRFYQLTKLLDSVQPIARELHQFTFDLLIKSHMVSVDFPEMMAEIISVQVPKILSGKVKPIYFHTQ
Assay: Antagonist activity at Androgen receptor in human MDA-kb2 cells
Type: cell-based
Consider the following compounds; for each one, report its IC50.
A complete answer gives the number followed by the unit.

Ask: Value lookup for IC50; key = N#Cc1ccc(-c2ccccc2O)cc1C(F)(F)F
Reply: 0.2 nM

Ask: Can you share its IC50? I mean this compound: CC(c1ccccc1)N(C)c1ccc(C#N)c(C(F)(F)F)n1 (stereo not drawn)
Reply: 45 nM

Ask: Consider the compound N#Cc1ccc([C@H]2CCCC[C@H]2O)cc1C(F)(F)F and give its measured IC50.
Reply: 90 nM
